# TARGET UNDER TEST: HER2YVMA (Homo sapiens, UniProt P04626, INS775YVMA)
# Sequence (P04626 with tags, fused parts or gaps INS775YVMA): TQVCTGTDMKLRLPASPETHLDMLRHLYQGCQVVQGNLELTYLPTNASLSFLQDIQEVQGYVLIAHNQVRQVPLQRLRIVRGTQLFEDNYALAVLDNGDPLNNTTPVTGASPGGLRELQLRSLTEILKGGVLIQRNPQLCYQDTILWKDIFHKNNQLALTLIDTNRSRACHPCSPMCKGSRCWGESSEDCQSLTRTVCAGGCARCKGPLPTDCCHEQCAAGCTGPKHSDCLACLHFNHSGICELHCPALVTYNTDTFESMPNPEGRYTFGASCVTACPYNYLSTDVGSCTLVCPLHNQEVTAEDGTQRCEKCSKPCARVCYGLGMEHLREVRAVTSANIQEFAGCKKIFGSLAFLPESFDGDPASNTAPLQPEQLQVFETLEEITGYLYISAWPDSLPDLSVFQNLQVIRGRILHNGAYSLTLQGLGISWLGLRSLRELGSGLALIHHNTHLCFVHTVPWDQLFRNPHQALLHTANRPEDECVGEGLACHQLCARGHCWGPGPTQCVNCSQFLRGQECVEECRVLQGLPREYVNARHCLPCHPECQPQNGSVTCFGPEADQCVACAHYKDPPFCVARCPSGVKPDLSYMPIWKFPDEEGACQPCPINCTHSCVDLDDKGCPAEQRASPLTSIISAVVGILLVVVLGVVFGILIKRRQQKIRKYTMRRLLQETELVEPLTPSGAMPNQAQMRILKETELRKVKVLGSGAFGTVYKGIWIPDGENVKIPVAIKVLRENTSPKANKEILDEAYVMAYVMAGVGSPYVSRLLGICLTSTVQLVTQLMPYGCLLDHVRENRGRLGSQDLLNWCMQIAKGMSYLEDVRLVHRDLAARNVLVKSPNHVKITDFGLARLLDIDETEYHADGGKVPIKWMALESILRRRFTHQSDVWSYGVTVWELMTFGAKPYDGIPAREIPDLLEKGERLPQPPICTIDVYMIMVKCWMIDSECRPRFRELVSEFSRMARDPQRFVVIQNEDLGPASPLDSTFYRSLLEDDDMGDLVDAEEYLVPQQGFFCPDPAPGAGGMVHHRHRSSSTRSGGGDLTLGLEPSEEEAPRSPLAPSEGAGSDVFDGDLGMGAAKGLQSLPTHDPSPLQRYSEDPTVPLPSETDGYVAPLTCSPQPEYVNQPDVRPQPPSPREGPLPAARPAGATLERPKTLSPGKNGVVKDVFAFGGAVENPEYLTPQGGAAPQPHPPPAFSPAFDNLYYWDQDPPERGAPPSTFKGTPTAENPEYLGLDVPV
# ASSAY OVERVIEW: HER2 signaling (pHER2) in Hek293-HER2YVMA cells
# Type: cell-based
# Design: expressed in transfected cells; host or cells: HEK293 (pool), Ba/F3 (clones), BEAS2B (clones); lentiviral vector pCDH-CMV-MCS-EF1-Neo
# TEST CONDITIONS: 1.5 hr compound, 1% FBS, read-out: HEKYVMA pHER2 EC50
Structures can show the parent of a compound that is named as a salt.
Reported EC50 values for a set of compounds

Cc1ccc(Oc2ccc(Nc3ncnc4sc5c(c34)C(C)CN(C(=O)/C=C/CN(C)C)C5)cc2Cl)cn1 (stereo not drawn) [Compound 171] :: < 100 nM
Cc1ccc(Oc2ccc(Nc3ncnc4sc5c(c34)CN(C(=O)C=CCN(C)C)C5C)cc2C)cn1 (single isomer, unassigned) [Compound 169] :: < 100 nM
Cc1ccc(Oc2ccc(Nc3ncnc4sc5c(c34)C(C)CN(C(=O)C=CCN3CCOCC3)C5)cc2C)cn1 (single isomer, unassigned) [Compound 177] :: < 100 nM
C=CC(=O)N1CCc2[nH]c3ncnc(Nc4ccc(Oc5ccc6ncnn6c5)c(C)c4)c3c2C1 [Compound 102] :: 100 to 350 nM
Cc1ccc(Oc2ccc(Nc3ncnc4sc5c(c34)CCN(C(=O)/C=C/CN3CC(CO)(CO)C3)C5)cc2C)cn1 [Compound 134] :: 100 to 350 nM

Turning to the following compound.
[Q] Please look up its EC50: Cc1ccc(Oc2ccc(Nc3ncnc4sc5c(c34)CCN(C(=O)/C=C/CN3CC4CCC(C4)C3)C5)cc2C)cn1 [Compound 16, benzenesulfonate salt]
[A] < 100 nM

====

# TARGET UNDER TEST: EGFR (Homo sapiens)
# Sequence (P00533 25-1210): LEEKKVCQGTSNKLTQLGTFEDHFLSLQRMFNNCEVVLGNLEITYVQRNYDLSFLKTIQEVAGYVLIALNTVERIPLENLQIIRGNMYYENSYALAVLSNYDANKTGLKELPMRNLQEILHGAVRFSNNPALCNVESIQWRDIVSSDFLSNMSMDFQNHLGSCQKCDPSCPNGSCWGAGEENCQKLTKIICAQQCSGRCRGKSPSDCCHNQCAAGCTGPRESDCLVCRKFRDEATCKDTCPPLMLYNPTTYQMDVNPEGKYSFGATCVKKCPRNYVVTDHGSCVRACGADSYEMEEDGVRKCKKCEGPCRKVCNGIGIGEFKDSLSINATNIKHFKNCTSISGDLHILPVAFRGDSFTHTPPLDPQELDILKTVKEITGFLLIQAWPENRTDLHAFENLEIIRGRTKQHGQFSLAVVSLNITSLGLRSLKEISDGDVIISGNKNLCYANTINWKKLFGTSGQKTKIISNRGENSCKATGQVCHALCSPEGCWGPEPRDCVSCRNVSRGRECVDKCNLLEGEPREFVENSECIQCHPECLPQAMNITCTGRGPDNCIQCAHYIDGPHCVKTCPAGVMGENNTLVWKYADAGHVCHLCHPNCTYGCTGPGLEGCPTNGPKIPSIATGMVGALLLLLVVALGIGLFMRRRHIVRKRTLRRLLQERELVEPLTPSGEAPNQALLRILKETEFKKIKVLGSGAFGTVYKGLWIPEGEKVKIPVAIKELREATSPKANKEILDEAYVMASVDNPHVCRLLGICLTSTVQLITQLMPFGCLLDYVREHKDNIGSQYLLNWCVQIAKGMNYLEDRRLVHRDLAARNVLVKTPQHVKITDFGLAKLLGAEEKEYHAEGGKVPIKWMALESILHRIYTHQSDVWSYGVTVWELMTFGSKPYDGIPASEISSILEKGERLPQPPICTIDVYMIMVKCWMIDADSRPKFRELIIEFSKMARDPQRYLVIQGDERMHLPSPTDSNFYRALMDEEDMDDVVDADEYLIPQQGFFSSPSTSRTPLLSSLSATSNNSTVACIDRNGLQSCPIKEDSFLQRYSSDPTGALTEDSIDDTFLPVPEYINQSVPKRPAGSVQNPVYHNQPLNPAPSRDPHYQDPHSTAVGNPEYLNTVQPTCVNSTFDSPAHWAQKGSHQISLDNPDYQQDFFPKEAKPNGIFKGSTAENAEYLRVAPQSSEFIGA
# ASSAY OVERVIEW: EGFR signaling (pEGFR Tyr1068/total EGFR MSD) in A431 cells
# Format: cell-based
# Parameters: endogenous in cells; host or cells: A431, N87
# TEST CONDITIONS: A431 cells; read-out: A431 pEGFR EC50
Reported EC50 values for a set of compounds

Guide cases for EC50, answers given:
COc1ccc(Oc2ccc(Nc3ncnc4sc5c(c34)CCN(C(=O)/C=C/CN3CC[C@H](CO)C3)C5)cc2C)cn1 [Compound 140] :: 100 to 1000 nM
Cc1ccc(Oc2ccc(Nc3ncnc4sc5c(c34)C(C)CN(C(=O)C=CCN(C)C(C)(C)C)C5)cc2C)cn1 (single isomer, unassigned) [Compound 179] :: < 100 nM

Turning to the following compound.
[Q] Please look up its EC50: CN(C/C=C/C(=O)N1CCc2c(sc3ncnc(Nc4ccc(Oc5ccc6ncnn6c5)c(Cl)c4)c23)C1)C(C)(C)C [Compound 91]
[A] < 100 nM

====

# TARGET UNDER TEST: HER2YVMA (Homo sapiens, UniProt P04626, INS775YVMA)
# ASSAY OVERVIEW: Enzymatic assay HER2YVMA (method b)
# TEST CONDITIONS: [HER2YVMA]=5 nM, [ATP]=25 μM, [Peptide 22]=1 μM
PROPERTY MEASURED: IC50

Cc1ccc(Oc2ccc(Nc3ncnc4sc5c(c34)CCN(C(=O)/C=C/CN3CC4CCC(C3)O4)C5)cc2C)cn1 :: 100 to 1000 nM
Cc1ccc(Oc2ccc(Nc3ncnc4sc5c(c34)CCN(C(=O)/C=C/CNC3CCC3)C5)cc2C)cn1 :: < 100 nM
COc1ccc(Oc2ccc(Nc3ncnc4sc5c(c34)CCN(C(=O)/C=C/CN(C)C)CC5)cc2C)cn1 :: 100 to 1000 nM

[Q] Please look up its IC50: C=CC(=O)N1Cc2sc3ncnc(Nc4ccc(Oc5ccc(C)nc5)c(C)c4)c3c2C(C)C1 (single isomer, unassigned) [Compound 145]
[A] < 100 nM
